Each entry below carries its reported Purity of lyophilisate (stability study).
# Assay name: Stability investigation of the lyophilisate (visual inspection, reverse HPLC)
# Format: physicochemical
# Condition description: storage 25° C./60% rH, T = 6 M
# value in %; strip the unit string

| Structure | Purity of lyophilisate (stability study) [%] |
| --- | --- |
| C[C@@H]1NC(=O)CNC(=O)[C@H](CCC(=O)O)NC(=O)[C@@H]2CCCN2C(=O)[C@H]([C@@H](C)O)NC(=O)[C@H](CCC(=O)O)NC(=O)[C@H](CCCNC(=N)N)NC(=O)[C@H](CCC(N)=O)NC(=O)CNC(=O)[C@@H]2CCCN2C(=O)[C@H](CO)NC(=O)[C@@H](N)CCCCNC(=O)CC[C@@H](C(=O)O)NC(=O)[C@H](Cc2ccc(O)cc2)NC(=O)[C@H](Cc2c[nH]c3ccccc23)NC(=O)[C@@H]2CCCN2C(=O)[C@H](CCCCN)NC(=O)[C@H](C)NC(=O)[C@H](CCC(=O)O)NC1=O | 95 |
| C[C@@H]1NC(=O)CNC(=O)[C@H](CCC(=O)O)NC(=O)[C@@H]2CCCN2C(=O)[C@H]([C@@H](C)O)NC(=O)[C@H](CCC(=O)O)NC(=O)[C@H](CCCNC(=N)N)NC(=O)[C@H](CCC(N)=O)NC(=O)CNC(=O)[C@@H](N)CCCNC(=O)CNC(=O)[C@H](Cc2ccc(O)cc2)NC(=O)[C@H](Cc2c[nH]c3ccccc23)NC(=O)[C@@H]2CCCN2C(=O)[C@H](CCCCN)NC(=O)[C@H](C)NC(=O)[C@H](CCC(=O)O)NC1=O | 96 |

Here's the next entry for you.
Lab note: measured Purity of lyophilisate (stability study) of C[C@@H]1NC(=O)CNC(=O)[C@H](CCC(=O)O)NC(=O)[C@@H]2CCCN2C(=O)[C@H]([C@@H](C)O)NC(=O)[C@H](CCC(=O)O)NC(=O)[C@H](CCCNC(=N)N)NC(=O)[C@H](CCC(N)=O)NC(=O)CNC(=O)[C@@H](N)CCCCNC(=O)CNC(=O)[C@H](Cc2ccc(O)cc2)NC(=O)[C@H](Cc2c[nH]c3ccccc23)NC(=O)[C@@H]2CCCN2C(=O)[C@H](CCCCN)NC(=O)[C@H](C)NC(=O)[C@H](CCC(=O)O)NC1=O was 97

* * *

# Assay name: Stability investigation of the lyophilisate (visual inspection, reverse HPLC)
# Format: physicochemical
# Condition description: storage 2-8° C., T = 24 M
Measured attribute: Purity of lyophilisate (stability study) (%)
Give the value, in units of %, as a plain number.

Reference set, count: 3
| Structure | Recorded result |
| --- | --- |
| C[C@@H]1NC(=O)CNC(=O)[C@H](CCC(=O)O)NC(=O)[C@@H]2CCCN2C(=O)[C@H]([C@@H](C)O)NC(=O)[C@H](CCC(=O)O)NC(=O)[C@H](CCCNC(=N)N)NC(=O)[C@H](CCC(N)=O)NC(=O)CNC(=O)[C@@H](N)CCCNC(=O)CNC(=O)[C@H](Cc2ccc(O)cc2)NC(=O)[C@H](Cc2c[nH]c3ccccc23)NC(=O)[C@@H]2CCCN2C(=O)[C@H](CCCCN)NC(=O)[C@H](C)NC(=O)[C@H](CCC(=O)O)NC1=O | 97 |
| C[C@@H]1NC(=O)CNC(=O)[C@H](CCC(=O)O)NC(=O)[C@@H]2CCCN2C(=O)[C@H]([C@@H](C)O)NC(=O)[C@H](CCC(=O)O)NC(=O)[C@H](CCCNC(=N)N)NC(=O)[C@H](CCC(N)=O)NC(=O)CNC(=O)CCNC(=O)CC[C@@H](C(=O)O)NC(=O)[C@H](Cc2ccc(O)cc2)NC(=O)[C@H](Cc2c[nH]c3ccccc23)NC(=O)[C@@H]2CCCN2C(=O)[C@H](CCCCN)NC(=O)[C@H](C)NC(=O)[C@H](CCC(=O)O)NC1=O | 99 |
| C[C@@H]1NC(=O)CNC(=O)[C@H](CCC(=O)O)NC(=O)[C@@H]2CCCN2C(=O)[C@H]([C@@H](C)O)NC(=O)[C@H](CCC(=O)O)NC(=O)[C@H](CCCNC(=N)N)NC(=O)[C@H](CCC(N)=O)NC(=O)CNC(=O)[C@@H]2CCCN2C(=O)[C@H](CO)NC(=O)[C@@H](N)CCCCNC(=O)CC[C@@H](C(=O)O)NC(=O)[C@H](Cc2ccc(O)cc2)NC(=O)[C@H](Cc2c[nH]c3ccccc23)NC(=O)[C@@H]2CCCN2C(=O)[C@H](CCCCN)NC(=O)[C@H](C)NC(=O)[C@H](CCC(=O)O)NC1=O | 96 |

Now consider the entry below.
What the record says about C[C@@H]1NC(=O)CNC(=O)[C@H](CCC(=O)O)NC(=O)[C@@H]2CCCN2C(=O)[C@H]([C@@H](C)O)NC(=O)[C@H](CCC(=O)O)NC(=O)[C@H](CCCNC(=N)N)NC(=O)[C@H](CCC(N)=O)NC(=O)CNC(=O)[C@@H](N)CSSC[C@@H](C(=O)O)NC(=O)[C@H](Cc2ccc(O)cc2)NC(=O)[C@H](Cc2c[nH]c3ccccc23)NC(=O)[C@@H]2CCCN2C(=O)[C@H](CCCCN)NC(=O)[C@H](C)NC(=O)[C@H](CCC(=O)O)NC1=O : Purity of lyophilisate (stability study) is 96

* * *

# Assay name: Stability investigation of the lyophilisate (visual inspection, reverse HPLC)
# Format: physicochemical
# Condition description: storage 2-8° C., T = 0 to T = 24 M
# Description: For that the lyophilisate was stored up to 24 months at 2 to 8° C. and up to 6 months at 25° C. at 60% relative humidity. Stability was investigated at different time points during that period. In particular the appearance, contents, as well as purity of the cyclic peptides were investigated. For that laboratory-common analytical processes were used, such as e.g. visual inspection and reverse HPLC.
Measured attribute: Appearence of lyophilisate

Completed entries (count: 5):
| Structure | Recorded result |
| --- | --- |
| C[C@@H]1NC(=O)CNC(=O)[C@H](CCC(=O)O)NC(=O)[C@@H]2CCCN2C(=O)[C@H]([C@@H](C)O)NC(=O)[C@H](CCC(=O)O)NC(=O)[C@H](CCCNC(=N)N)NC(=O)[C@H](CCC(N)=O)NC(=O)CNC(=O)[C@@H](N)CCCCNC(=O)CNC(=O)[C@H](Cc2ccc(O)cc2)NC(=O)[C@H](Cc2c[nH]c3ccccc23)NC(=O)[C@@H]2CCCN2C(=O)[C@H](CCCCN)NC(=O)[C@H](C)NC(=O)[C@H](CCC(=O)O)NC1=O | white powder |
| C[C@@H]1NC(=O)CNC(=O)[C@H](CCC(=O)O)NC(=O)[C@@H]2CCCN2C(=O)[C@H]([C@@H](C)O)NC(=O)[C@H](CCC(=O)O)NC(=O)[C@H](CCCNC(=N)N)NC(=O)[C@H](CCC(N)=O)NC(=O)CNC(=O)[C@@H](N)CSSC[C@@H](C(=O)O)NC(=O)[C@H](Cc2ccc(O)cc2)NC(=O)[C@H](Cc2c[nH]c3ccccc23)NC(=O)[C@@H]2CCCN2C(=O)[C@H](CCCCN)NC(=O)[C@H](C)NC(=O)[C@H](CCC(=O)O)NC1=O | white powder |
| C[C@@H]1NC(=O)CNC(=O)[C@H](CCC(=O)O)NC(=O)[C@@H]2CCCN2C(=O)[C@H]([C@@H](C)O)NC(=O)[C@H](CCC(=O)O)NC(=O)[C@H](CCCNC(=N)N)NC(=O)[C@H](CCC(N)=O)NC(=O)CNC(=O)[C@@H]2CCCN2C(=O)[C@H](CO)NC(=O)[C@@H](N)CCCCNC(=O)CC[C@@H](C(=O)O)NC(=O)[C@H](Cc2ccc(O)cc2)NC(=O)[C@H](Cc2c[nH]c3ccccc23)NC(=O)[C@@H]2CCCN2C(=O)[C@H](CCCCN)NC(=O)[C@H](C)NC(=O)[C@H](CCC(=O)O)NC1=O | white powder |
| C[C@@H]1NC(=O)CNC(=O)[C@H](CCC(=O)O)NC(=O)[C@@H]2CCCN2C(=O)[C@H]([C@@H](C)O)NC(=O)[C@H](CCC(=O)O)NC(=O)[C@H](CCCNC(=N)N)NC(=O)[C@H](CCC(N)=O)NC(=O)CNC(=O)CCNC(=O)CC[C@@H](C(=O)O)NC(=O)[C@H](Cc2ccc(O)cc2)NC(=O)[C@H](Cc2c[nH]c3ccccc23)NC(=O)[C@@H]2CCCN2C(=O)[C@H](CCCCN)NC(=O)[C@H](C)NC(=O)[C@H](CCC(=O)O)NC1=O | white powder |
| C[C@@H]1NC(=O)CNC(=O)[C@H](CCC(=O)O)NC(=O)[C@@H]2CCCN2C(=O)[C@H]([C@@H](C)O)NC(=O)[C@H](CCC(=O)O)NC(=O)[C@H](CCCNC(=N)N)NC(=O)[C@H](CCC(N)=O)NC(=O)CNC(=O)[C@@H](N)CCCNC(=O)CNC(=O)[C@H](Cc2ccc(O)cc2)NC(=O)[C@H](Cc2c[nH]c3ccccc23)NC(=O)[C@@H]2CCCN2C(=O)[C@H](CCCCN)NC(=O)[C@H](C)NC(=O)[C@H](CCC(=O)O)NC1=O | white powder |

Sure, the documented Appearence of lyophilisate for C[C@@H]1NC(=O)CNC(=O)[C@H](CCC(=O)O)NC(=O)[C@@H]2CCCN2C(=O)[C@H]([C@@H](C)O)NC(=O)[C@H](CCC(=O)O)NC(=O)[C@H](CCCNC(=N)N)NC(=O)[C@H](CCC(N)=O)NC(=O)CNC(=O)CCCNC(=O)C[C@@H](C(=O)O)NC(=O)[C@H](Cc2ccc(O)cc2)NC(=O)[C@H](Cc2c[nH]c3ccccc23)NC(=O)[C@@H]2CCCN2C(=O)[C@H](CCCCN)NC(=O)[C@H](C)NC(=O)[C@H](CCC(=O)O)NC1=O is white powder
